# target or system: T1, IL-18 receptor (IL-18Rα and IL-18Rβ) (UniProt Q13478 19-541; O95256 20-599, limits assumed)
# T1 sequence (looked up) 1: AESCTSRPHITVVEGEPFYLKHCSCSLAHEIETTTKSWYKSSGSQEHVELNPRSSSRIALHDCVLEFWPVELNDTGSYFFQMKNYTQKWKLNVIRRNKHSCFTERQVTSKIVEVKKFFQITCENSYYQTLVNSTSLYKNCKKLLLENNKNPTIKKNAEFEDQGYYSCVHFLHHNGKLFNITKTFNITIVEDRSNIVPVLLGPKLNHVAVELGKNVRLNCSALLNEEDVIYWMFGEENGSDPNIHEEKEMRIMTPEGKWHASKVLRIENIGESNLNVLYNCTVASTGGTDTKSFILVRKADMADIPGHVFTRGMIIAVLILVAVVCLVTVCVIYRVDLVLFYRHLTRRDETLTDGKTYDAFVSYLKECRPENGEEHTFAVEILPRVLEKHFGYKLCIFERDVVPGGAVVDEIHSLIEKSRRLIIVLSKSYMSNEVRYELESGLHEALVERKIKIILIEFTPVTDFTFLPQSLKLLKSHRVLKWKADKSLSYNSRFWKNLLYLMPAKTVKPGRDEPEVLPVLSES
# T1 sequence (looked up) 2: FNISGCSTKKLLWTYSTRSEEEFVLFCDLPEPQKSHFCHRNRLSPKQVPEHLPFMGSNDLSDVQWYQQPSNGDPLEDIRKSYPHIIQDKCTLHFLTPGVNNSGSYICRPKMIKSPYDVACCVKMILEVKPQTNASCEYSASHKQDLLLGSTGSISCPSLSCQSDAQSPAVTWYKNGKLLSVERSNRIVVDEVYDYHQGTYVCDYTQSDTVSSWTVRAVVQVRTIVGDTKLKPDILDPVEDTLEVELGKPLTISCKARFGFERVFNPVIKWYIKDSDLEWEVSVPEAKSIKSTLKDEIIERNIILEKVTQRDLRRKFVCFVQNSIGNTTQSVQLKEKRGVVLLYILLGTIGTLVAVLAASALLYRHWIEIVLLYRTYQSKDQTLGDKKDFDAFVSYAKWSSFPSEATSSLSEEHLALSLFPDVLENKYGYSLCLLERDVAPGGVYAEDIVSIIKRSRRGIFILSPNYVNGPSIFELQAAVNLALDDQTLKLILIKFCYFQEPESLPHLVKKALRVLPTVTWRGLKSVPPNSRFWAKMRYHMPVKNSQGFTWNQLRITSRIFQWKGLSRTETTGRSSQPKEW
# assay protocol: cell-based or functional assay
quantity kind: EC50 (pM), PBMC IFN gamma assay, run 3
Respond numerically; units are pM and should not be typed.

Before answering, review these 4 worked examples.
- binder: "hIL18 (G3T, K53A, M60K) - KiH (Fc fusion) YFTKLESKLSVIRNLNDQVLFIDQGNRPLFEDMTDSDMRDNAPRTIFIISMYADSQPRGKAVTISVKSEKISTLSSENKIISFKEMNPPDNIKDTKSDIIFFQRSVPGHDNKMQFESSSYEGYFLASEKERDLFKLILKKEDELGDRSIMFTVQNED"
  unit tag: "pM"
  endpoint value: 162
- binder: "hIL18 (G3V, K53A, M60K) - KiH (Fc fusion) YFVKLESKLSVIRNLNDQVLFIDQGNRPLFEDMTDSDMRDNAPRTIFIISMYADSQPRGKAVTISVKSEKISTLSSENKIISFKEMNPPDNIKDTKSDIIFFQRSVPGHDNKMQFESSSYEGYFLASEKERDLFKLILKKEDELGDRSIMFTVQNED"
  unit tag: "pM"
  endpoint value: 59.4
- binder: "hIL18 (G3V, E6K, K53A, M60K)- KiH (Fc fusion) YFVKLKSKLSVIRNLNDQVLFIDQGNRPLFEDMTDSDMRDNAPRTIFIISMYADSQPRGKAVTISVKSEKISTLSSENKIISFKEMNPPDNIKDTKSDIIFFQRSVPGHDNKMQFESSSYEGYFLASEKERDLFKLILKKEDELGDRSIMFTVQNED"
  unit tag: "pM"
  endpoint value: 4.33
- binder: "hIL18 (G3V, K53S, M60K) - KiH (Fc fusion) YFVKLESKLSVIRNLNDQVLFIDQGNRPLFEDMTDSDMRDNAPRTIFIISMYSDSQPRGKAVTISVKSEKISTLSSENKIISFKEMNPPDNIKDTKSDIIFFQRSVPGHDNKMQFESSSYEGYFLASEKERDLFKLILKKEDELGDRSIMFTVQNED"
  unit tag: "pM"
  endpoint value: 603

Task item: Find the recorded EC50 (pM), PBMC IFN gamma assay, run 3 belonging to hIL18 (G3T, E6K, K53A, M60K) - KiH (Fc fusion) YFTKLKSKLSVIRNLNDQVLFIDQGNRPLFEDMTDSDMRDNAPRTIFIISMYADSQPRGKAVTISVKSEKISTLSSENKIISFKEMNPPDNIKDTKSDIIFFQRSVPGHDNKMQFESSSYEGYFLASEKERDLFKLILKKEDELGDRSIMFTVQNED and report it.
Reply: 20.7
